Catalogue of IC50 values
Study Target: Glucagon receptor (Mus musculus)
Test: Binding affinity towards glucagon receptor determined by reduction in binding of 125 I-glucagon to the murine glucagon receptor (mGLUR) expressed on CHO cells in presence of Mg+2
Format: cell-based
Write it as a number; the unit µM goes unstated.

Some compounds with recorded IC50:
CCCOc1cc(Br)ccc1-c1cc(-c2ccc(Cl)cc2)[nH]c1-c1ccncc1	0.83
CCCCOc1ccccc1-c1cc(-c2ccc(Cl)cc2)[nH]c1-c1ccncc1	1.2
CCCOc1ccc(Cl)cc1-c1cc(-c2ccc(Cl)cc2)[nH]c1-c1ccncc1	1

Tell me IC50 reported for CCCOc1ccc(Br)cc1-c1cc(-c2ccc(Cl)cc2)[nH]c1-c1ccncc1
0.25

====

Study Target: Glucagon receptor (Homo sapiens)
Sequence (P47871 whole entry): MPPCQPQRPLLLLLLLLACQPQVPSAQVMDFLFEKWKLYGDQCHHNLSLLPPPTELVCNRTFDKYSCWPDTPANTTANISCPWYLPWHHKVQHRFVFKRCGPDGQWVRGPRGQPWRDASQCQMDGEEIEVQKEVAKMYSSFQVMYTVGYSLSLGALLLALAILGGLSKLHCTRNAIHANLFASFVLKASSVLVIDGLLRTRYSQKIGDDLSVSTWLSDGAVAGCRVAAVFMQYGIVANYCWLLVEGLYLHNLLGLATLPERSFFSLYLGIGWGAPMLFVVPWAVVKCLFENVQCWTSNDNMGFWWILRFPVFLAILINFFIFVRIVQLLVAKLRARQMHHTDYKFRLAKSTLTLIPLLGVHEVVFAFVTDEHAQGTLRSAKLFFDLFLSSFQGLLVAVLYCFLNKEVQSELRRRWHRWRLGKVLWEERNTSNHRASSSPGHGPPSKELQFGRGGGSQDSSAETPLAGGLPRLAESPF
Test: biochemical
Type: cell-based, CHO
Description: Binding affinity determined by reduction in binding of 125 I-glucagon to the human glucagon receptor expressed on CHO cells in absence of Mg+2
Quantity: pIC50
In simple prose, pIC50 is minus the logarithm base ten of a concentration in moles per litre.

Some molecules with recorded pIC50:
Nc1ccc(-c2cc(-c3ccc(F)cc3)c(-c3ccncc3)[nH]2)cc1	5.85
Clc1ccc(-c2ccc(-c3ccncc3)[nH]2)cc1	6.85
CCCCCCOc1ccccc1-c1cc(-c2ccc(Cl)cc2)[nH]c1-c1ccncc1	7.40
Clc1ccc(-c2cc(-c3ccccc3Br)c(-c3ccncc3)[nH]2)cc1	7.59

Tell me pIC50 reported for N#Cc1ccc(-c2cc(-c3ccc(F)cc3)c(-c3ccncc3)[nH]2)cc1
6.85

Tell me pIC50 reported for CCOC(=O)c1ccc(-c2cc(-c3ccc(F)cc3)c(-c3ccncc3)[nH]2)cc1
6.07

Tell me pIC50 reported for CCCOc1ccccc1-c1cc(-c2ccc(Cl)cc2)[nH]c1-c1ccncc1
8.10

====

Test: Concentration in plasma (systemic) following oral dose in mouse at 2 hr
Assay type: ADME, organism-based
Quantity: concentration at 2 h (µM)
Write it as a number; the unit µM goes unstated.

Tell me concentration at 2 h reported for CCCOc1ccc(Br)cc1-c1cc(-c2ccc(Cl)cc2)[nH]c1-c1ccncc1
11.7

====

Test: Concentration in plasma (systemic) following oral dose in rats at 2 hr
Format: ADME, organism-based
Details: rat
Quantity: concentration at 2 h (µM)
Write it as a number; the unit µM goes unstated.

Tell me concentration at 2 h reported for CCCOc1ccc(Br)cc1-c1cc(-c2ccc(Cl)cc2)[nH]c1-c1ccncc1
0.84

====

Study Target: Glucagon receptor (Mus musculus, UniProt Q61606)
Sequence (Q61606 whole entry): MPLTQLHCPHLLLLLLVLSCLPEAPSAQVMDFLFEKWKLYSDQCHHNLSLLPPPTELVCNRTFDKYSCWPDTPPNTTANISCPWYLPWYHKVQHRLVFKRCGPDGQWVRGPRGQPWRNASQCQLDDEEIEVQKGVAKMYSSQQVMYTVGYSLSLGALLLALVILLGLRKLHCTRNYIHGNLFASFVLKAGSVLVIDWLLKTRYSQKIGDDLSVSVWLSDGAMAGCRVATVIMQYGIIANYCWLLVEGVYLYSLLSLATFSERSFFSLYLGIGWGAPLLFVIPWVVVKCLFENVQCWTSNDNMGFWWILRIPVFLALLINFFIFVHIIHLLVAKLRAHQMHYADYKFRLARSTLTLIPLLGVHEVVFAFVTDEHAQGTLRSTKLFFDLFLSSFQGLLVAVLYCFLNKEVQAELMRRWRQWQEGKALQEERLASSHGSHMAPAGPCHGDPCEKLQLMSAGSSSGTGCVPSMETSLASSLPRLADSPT
Test: Binding affinity towards glucagon receptor determined by reduction in binding of 125 I-glucagon to the murine glucagon receptor (mGLUR) expressed on CHO cells in presence of Mg+2
Format: cell-based
Catalogue of IC50 values

CCCNc1ccccc1-c1cc(-c2ccc(Cl)cc2)[nH]c1-c1ccncc1	> 3000 nM
CCCOc1ccccc1-c1cc(-c2ccc(Cl)cc2)[nH]c1-c1ccncc1	700 nM

Now take the following compound into account.
Tell me IC50 reported for Clc1ccc(-c2cc(C3CCCCC3)c(-c3ccncc3)[nH]2)cc1
> 3000 nM

====

Catalogue of IC50 values
Study Target: Glucagon receptor (Mus musculus)
Test: Binding affinity towards glucagon receptor determined by reduction in binding of [125I]glucagon to the murine glucagon receptor (GGR) expressed on CHO cells in absence of Mg+2
Type: cell-based
Write it as a number; the unit nM goes unstated.

Some compounds with recorded IC50:
CCCOc1ccc(Br)cc1-c1cc(-c2ccc(Cl)cc2)[nH]c1-c1ccncc1	37
CCCNc1ccccc1-c1cc(-c2ccc(Cl)cc2)[nH]c1-c1ccncc1	440
Fc1ccc(-c2cc(-c3ccccc3)[nH]c2-c2ccncc2)cc1	2700

Tell me IC50 reported for CC(C)c1cc(-c2ccc(Cl)cc2)[nH]c1-c1ccncc1
60
